PROCEDURE_DETAILS: Acute toxicity (LD50), intraperitoneal injection
Assay type: in vivo
APPLIED_CONDITIONS: CD1, mouse, in vivo, ip; mice, i.p. injection
So I've got a bunch of molecules here, and I need their LD50 at 14 days values.
Dear colleague, please return just the value in mg/kg, with no unit written.

Query block: # get_value(readout='LD50 at 14 days', item= CCN(CCCn1c(C)cc(=O)n(CCCN(CC)Cc2cccc(C(=O)OC)c2)c1=O)Cc1cccc(C(=O)OC)c1 )
Result block: 170

Query block: # get_value(readout='LD50 at 14 days', item= CCN(CCCCCn1c(=O)c2ccccc2n(CCCCCN(CC)Cc2cccc(C(=O)OC)c2)c1=O)Cc1cccc(C(=O)OC)c1 )
Result block: 93

Query block: # get_value(readout='LD50 at 14 days', item= CCN(CCCCCn1c(C)cc(=O)n(CCCCCN(CC)Cc2cccc(C(=O)[O-])c2)c1=O)Cc1cccc(C(=O)[O-])c1.[Na+].[Na+] )
Result block: 170

----------
SYSTEM_TESTED: hAChE (Homo sapiens, UniProt P22303)
Construct: purchased Sigma-Aldrich
Sequence (P22303 32-614): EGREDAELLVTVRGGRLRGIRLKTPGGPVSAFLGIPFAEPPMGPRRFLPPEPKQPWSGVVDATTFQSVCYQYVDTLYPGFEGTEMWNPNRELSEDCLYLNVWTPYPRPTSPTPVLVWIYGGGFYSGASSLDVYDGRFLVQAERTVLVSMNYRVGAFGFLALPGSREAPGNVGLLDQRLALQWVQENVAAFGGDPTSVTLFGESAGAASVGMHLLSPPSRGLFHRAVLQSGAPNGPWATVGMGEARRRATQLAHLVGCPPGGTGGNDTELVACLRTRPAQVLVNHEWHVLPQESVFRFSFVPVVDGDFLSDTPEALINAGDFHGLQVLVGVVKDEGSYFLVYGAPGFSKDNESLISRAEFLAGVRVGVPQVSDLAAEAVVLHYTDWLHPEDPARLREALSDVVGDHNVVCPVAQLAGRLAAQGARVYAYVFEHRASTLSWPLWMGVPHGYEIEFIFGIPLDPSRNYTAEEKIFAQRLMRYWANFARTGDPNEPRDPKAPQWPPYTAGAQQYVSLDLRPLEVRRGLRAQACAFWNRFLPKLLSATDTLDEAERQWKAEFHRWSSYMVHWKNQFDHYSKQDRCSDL
PROCEDURE_DETAILS: biochemical
Assay type: biochemical
APPLIED_CONDITIONS: (IC50 BChE)/(IC50 AChE)
METRIC: AChE Selectivity
Give the figure only, with no unit attached.

Query block: # get_value(readout='AChE Selectivity', item= CCN(CCCCCn1c(C)cc(=O)n(CCCCCN(CC)Cc2ccc(C(=O)OC)cc2)c1=O)Cc1ccc(C(=O)OC)cc1 )
Result block: 355.5

Query block: # get_value(readout='AChE Selectivity', item= CCN(CCCCn1c(=O)c2ccccc2n(CCCCN(CC)Cc2cccc(C(=O)OC)c2)c1=O)Cc1cccc(C(=O)OC)c1 )
Result block: 7

Query block: # get_value(readout='AChE Selectivity', item= CCN(CCCCn1c(C)cc(=O)n(CCCCN(CC)Cc2cccc(C(=O)OC)c2)c1=O)Cc1cccc(C(=O)OC)c1 )
Result block: 722

Query block: # get_value(readout='AChE Selectivity', item= CCN(CCCCn1c(C)cc(=O)n(CCCCN(CC)Cc2ccc(C(=O)OC)cc2)c1=O)Cc1ccc(C(=O)OC)cc1 )
Result block: 39

Query block: # get_value(readout='AChE Selectivity', item= CCN(CCCCCn1c(=O)c2ccccc2n(CCCCCN(CC)Cc2cccc(C(=O)OC)c2)c1=O)Cc1cccc(C(=O)OC)c1 )
Result block: 8.2

Query block: # get_value(readout='AChE Selectivity', item= CCN(CCCCCCn1c(C)cc(=O)n(CCCCCCN(CC)Cc2cccc(C(=O)OC)c2)c1=O)Cc1cccc(C(=O)OC)c1 )
Result block: 285

Query block: # get_value(readout='AChE Selectivity', item= CCN(CCCCCCn1c(C)cc(=O)n(CCCCCCN(CC)Cc2ccc(C(=O)OC)cc2)c1=O)Cc1ccc(C(=O)OC)cc1 )
Result block: 2218

Query block: # get_value(readout='AChE Selectivity', item= CCN(CCCn1c(C)cc(=O)n(CCCN(CC)Cc2cccc(C(=O)OC)c2)c1=O)Cc1cccc(C(=O)OC)c1 )
Result block: 0.08

----------
So I've got a bunch of compounds here, and I need their IC50 values.
SYSTEM_TESTED: hAChE (Homo sapiens, UniProt P22303)
Construct: purchased Sigma-Aldrich
PROCEDURE_DETAILS: biochemical
Type: biochemical
APPLIED_CONDITIONS: human AChE; acetylthiocholine 1 mM; mean of three independent measurements
Dear colleague, please return just the value in nM, with no unit written.

Query block: # get_value(readout='IC50', item= CCN(CCCCn1c(=O)c2ccccc2n(CCCCN(CC)Cc2cccc(C(=O)OC)c2)c1=O)Cc1cccc(C(=O)OC)c1 )
Result block: 460

Query block: # get_value(readout='IC50', item= CCN(CCCCCn1c(C)cc(=O)n(CCCCCN(CC)Cc2cccc(C(=O)[O-])c2)c1=O)Cc1cccc(C(=O)[O-])c1.[Na+].[Na+] )
Result block: 13

Query block: # get_value(readout='IC50', item= CCN(CCCn1c(C)cc(=O)n(CCCN(CC)Cc2cccc(C(=O)OC)c2)c1=O)Cc1cccc(C(=O)OC)c1 )
Result block: 210000

Query block: # get_value(readout='IC50', item= CCN(CCCCCn1c(C)cc(=O)n(CCCCCN(CC)Cc2ccc(C(=O)OC)cc2)c1=O)Cc1ccc(C(=O)OC)cc1 )
Result block: 768

Query block: # get_value(readout='IC50', item= CCN(CCCCn1c(C)cc(=O)n(CCCCN(CC)Cc2cccc(C(=O)OC)c2)c1=O)Cc1cccc(C(=O)OC)c1 )
Result block: 27

Query block: # get_value(readout='IC50', item= CCN(CCCCn1c(C)cc(=O)n(CCCCN(CC)Cc2ccc(C(=O)OC)cc2)c1=O)Cc1ccc(C(=O)OC)cc1 )
Result block: 3300

Query block: # get_value(readout='IC50', item= CCN(CCCCCCn1c(C)cc(=O)n(CCCCCCN(CC)Cc2ccc(C(=O)OC)cc2)c1=O)Cc1ccc(C(=O)OC)cc1 )
Result block: 27

Query block: # get_value(readout='IC50', item= CCN(CCCCCn1c(=O)c2ccccc2n(CCCCCN(CC)Cc2cccc(C(=O)OC)c2)c1=O)Cc1cccc(C(=O)OC)c1 )
Result block: 290

Query block: # get_value(readout='IC50', item= CCN(CCCCCCn1c(C)cc(=O)n(CCCCCCN(CC)Cc2cccc(C(=O)OC)c2)c1=O)Cc1cccc(C(=O)OC)c1 )
Result block: 4.7

Query block: # get_value(readout='IC50', item= CCN(CCCCCn1c(C)cc(=O)n(CCCCCN(CC)Cc2ccc(C(=O)[O-])cc2)c1=O)Cc1ccc(C(=O)[O-])cc1.[Na+].[Na+] )
Result block: 4.6

----------
PROCEDURE_DETAILS: Acute toxicity (LD50), intraperitoneal injection
Type: in vivo
APPLIED_CONDITIONS: CD1, mouse, in vivo, ip; mice, i.p. injection
LD50 at 14 days strictly less than 90 mg/kg = condition met. Otherwise condition not met.

Query block: State whether 90 mg/kg exceeds LD50 at 14 days recorded for CCN(CCCCn1c(C)cc(=O)n(CCCCN(CC)Cc2cccc(C(=O)OC)c2)c1=O)Cc1cccc(C(=O)OC)c1 .
Result block: condition not met

Query block: State whether 90 mg/kg exceeds LD50 at 14 days recorded for CCN(CCCCn1c(C)cc(=O)n(CCCCN(CC)Cc2ccc(C(=O)OC)cc2)c1=O)Cc1ccc(C(=O)OC)cc1 .
Result block: condition met

Query block: State whether 90 mg/kg exceeds LD50 at 14 days recorded for CCN(CCCCCn1c(C)cc(=O)n(CCCCCN(CC)Cc2ccc(C(=O)OC)cc2)c1=O)Cc1ccc(C(=O)OC)cc1 .
Result block: condition not met

Query block: State whether 90 mg/kg exceeds LD50 at 14 days recorded for CCN(CCCCCCn1c(C)cc(=O)n(CCCCCCN(CC)Cc2cccc(C(=O)OC)c2)c1=O)Cc1cccc(C(=O)OC)c1 .
Result block: condition met

Query block: State whether 90 mg/kg exceeds LD50 at 14 days recorded for CCN(CCCCCCn1c(C)cc(=O)n(CCCCCCN(CC)Cc2ccc(C(=O)OC)cc2)c1=O)Cc1ccc(C(=O)OC)cc1 .
Result block: condition met

Query block: State whether 90 mg/kg exceeds LD50 at 14 days recorded for CCN(CCCCn1c(=O)c2ccccc2n(CCCCN(CC)Cc2cccc(C(=O)OC)c2)c1=O)Cc1cccc(C(=O)OC)c1 .
Result block: condition not met

Query block: State whether 90 mg/kg exceeds LD50 at 14 days recorded for CCN(CCCCCn1c(C)cc(=O)n(CCCCCN(CC)Cc2ccc(C(=O)[O-])cc2)c1=O)Cc1ccc(C(=O)[O-])cc1.[Na+].[Na+] .
Result block: condition not met

----------
SYSTEM_TESTED: hBChE (Homo sapiens, UniProt P06276)
Construct: hBChE from blood plasma; purchased Sigma-Aldrich; host or cells: human blood plasma
Sequence (P06276 29-602): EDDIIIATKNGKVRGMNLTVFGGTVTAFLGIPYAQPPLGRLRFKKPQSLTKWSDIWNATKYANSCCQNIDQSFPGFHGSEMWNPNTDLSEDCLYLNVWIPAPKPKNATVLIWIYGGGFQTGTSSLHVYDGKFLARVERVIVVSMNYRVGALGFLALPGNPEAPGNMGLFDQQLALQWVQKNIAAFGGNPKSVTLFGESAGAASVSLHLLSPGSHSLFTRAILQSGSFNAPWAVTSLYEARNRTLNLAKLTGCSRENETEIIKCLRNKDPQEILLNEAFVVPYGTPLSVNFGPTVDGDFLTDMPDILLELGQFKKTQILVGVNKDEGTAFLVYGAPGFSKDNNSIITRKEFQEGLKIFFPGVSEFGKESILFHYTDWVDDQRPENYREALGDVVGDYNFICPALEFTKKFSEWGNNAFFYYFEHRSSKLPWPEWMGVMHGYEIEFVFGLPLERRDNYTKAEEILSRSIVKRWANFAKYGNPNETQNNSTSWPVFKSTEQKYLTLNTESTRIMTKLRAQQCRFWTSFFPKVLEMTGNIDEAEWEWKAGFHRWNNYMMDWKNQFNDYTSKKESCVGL
PROCEDURE_DETAILS: biochemical
APPLIED_CONDITIONS: butyrylthiocholine 1 mM, mean of three independent measurements
METRIC: pIC50
Note: pIC50 values are expressed as the negative base-10 logarithm of concentration in M.

Query block: # get_value(readout='pIC50', item= CCN(CCCCCCn1c(C)cc(=O)n(CCCCCCN(CC)Cc2cccc(C(=O)OC)c2)c1=O)Cc1cccc(C(=O)OC)c1 )
Result block: 5.87

Query block: # get_value(readout='pIC50', item= CCN(CCCCCn1c(C)cc(=O)n(CCCCCN(CC)Cc2ccc(C(=O)OC)cc2)c1=O)Cc1ccc(C(=O)OC)cc1 )
Result block: 3.56

Query block: # get_value(readout='pIC50', item= CCN(CCCCCn1c(=O)c2ccccc2n(CCCCCN(CC)Cc2cccc(C(=O)OC)c2)c1=O)Cc1cccc(C(=O)OC)c1 )
Result block: 5.62

Query block: # get_value(readout='pIC50', item= CCN(CCCn1c(C)cc(=O)n(CCCN(CC)Cc2cccc(C(=O)OC)c2)c1=O)Cc1cccc(C(=O)OC)c1 )
Result block: 4.80

Query block: # get_value(readout='pIC50', item= CCN(CCCCn1c(=O)c2ccccc2n(CCCCN(CC)Cc2cccc(C(=O)OC)c2)c1=O)Cc1cccc(C(=O)OC)c1 )
Result block: 5.50

Query block: # get_value(readout='pIC50', item= CCN(CCCCn1c(C)cc(=O)n(CCCCN(CC)Cc2cccc(C(=O)OC)c2)c1=O)Cc1cccc(C(=O)OC)c1 )
Result block: 4.71

Query block: # get_value(readout='pIC50', item= CCN(CCCCn1c(C)cc(=O)n(CCCCN(CC)Cc2ccc(C(=O)OC)cc2)c1=O)Cc1ccc(C(=O)OC)cc1 )
Result block: 3.89

Query block: # get_value(readout='pIC50', item= CCN(CCCCCCn1c(C)cc(=O)n(CCCCCCN(CC)Cc2ccc(C(=O)OC)cc2)c1=O)Cc1ccc(C(=O)OC)cc1 )
Result block: 4.22
